- System: NCI-H322M lung
- test.summary: NCI-60 one-dose screen, 48 h (100 = growth as untreated, 0 = no growth, -100 = all killed)
- run.conditions: 10 µM unless noted
About 83,000 compounds went through this panel and 20% of them were active in at least one assay; those are over-represented in the sample as a whole.
Give Y when the value for growth is at least 90%. Give N when it is less.

{"compound": "COc1ccc(/C=C(\\C#N)n2nnc3c(F)cccc32)cc1", "class.name": "N"}

Query: Textbook exercise: given the entry CC(=O)Oc1ccccc1C(=O)N=C1[Se]CCCN1C(=O)c1ccccc1OC(C)=O , state whether its growth is greater than or equal to 90%.
Result: N

Query: Textbook exercise: given the entry Cc1ccc(S(=O)(=O)N/N=C/C2(c3ccccc3)CC2)cc1 , state whether its growth is greater than or equal to 90%.
Result: Y
